Test system: SF-268 CNS
Assay: NCI-60 one-dose screen, 48 h (100 = growth as untreated, 0 = no growth, -100 = all killed)
Conditions: 10 µM unless noted
This is part of a sample that, as a whole, favours compounds with a hit. Of some 83,000 tested, about 20% had one in any assay.

- compound: "CCN1CCN(C(=S)SCC(=O)Nc2nc3ccc(OC)cc3s2)CC1"
  growth (%): 92.5
- compound: "CC(=O)c1cc(C)c(OC(=O)c2ccccc2)c(C)c1"
  growth (%): 107
- compound: "Cn1cc(C(=O)NCCC(=N)N)cc1NC(=O)CN=C(N)N"
  growth (%): 112
- compound: "COc1cc(OCc2cccc(-c3ccc(C(O)c4nccs4)cc3)c2C)cc(OC)c1C=O (stereo unspecified)"
  growth (%): 65
- compound: "O=c1[nH]c(=S)[nH]c(=O)n1Cc1cccc2ccccc12"
  growth (%): 107
- compound: "COc1ccc(/C=C2\\Oc3cc(C)c(Cl)cc3C2=O)cc1OC"
  growth (%): 102

###

As shown below, each of these compounds has a reported growth value.
Tested on: U251 CNS
Experiment: NCI-60 one-dose screen, 48 h (100 = growth as untreated, 0 = no growth, -100 = all killed)
Details: 10 µM unless noted
The panel holds about 83,000 compounds, 20% with a hit somewhere; the sample as a whole holds those more often. Calls of active or inactive are those of the source. The calls were made as follows: active = growth percent below 10; inactive = the rest.

- compound: "CN1CCn2c(c(Sc3ccc(C(=O)NO)cc3)c3ccccc32)C1=O"
  growth: "-60.5% (active)"
- compound: "COc1c(Cl)ccc2c(-c3nc4cc(Cl)c(F)cc4s3)cc(=O)oc12"
  growth: "99.1% (inactive)"
- compound: "C=C1CC[C@@H]2[C@@](C)(CCC[C@]2(C)C(=O)O)[C@@H]1CC[C@H](CO)CCO"
  growth: "102% (inactive)"
- compound: "Cc1nc2nc(C(F)(F)F)[nH]c2nc1C"
  growth: "102% (inactive)"
- compound: "O=C(c1ccc2ncc(-c3nc(NC4CC4)ncc3F)n2c1)N1CCOCC1"
  growth: "28.6% (inactive)"
- compound: "CC(C)N1CCN(c2ccc(OC[C@H]3CO[C@](Cn4cncn4)(c4ccc(Cl)cc4Cl)O3)cc2)CC1"
  growth: "73.8% (inactive)"
- compound: "O=C(NC1CC1)c1cc2n(n1)CC(c1ccccc1)N2 (centres undefined)"
  growth: "102% (inactive)"
- compound: "Cc1c(NCC(=O)Nc2nc3ccccc3[nH]2)c(=O)n(-c2ccccc2)n1C"
  growth: "96.7% (inactive)"
- compound: "CCN1CCN(C(=S)SCC(=O)Nc2nc3ccc(OC)cc3s2)CC1"
  growth: "102% (inactive)"
- compound: "CC1(C)CC(=O)C2=C(C1)Nc1cc3c(cc1C2c1ccc(F)cc1)OCO3 (centres undefined)"
  growth: "90.6% (inactive)"
- compound: "O=C(c1cnn2c1NC(c1ccc(F)cc1)C2)N1CCCCC1 (centres undefined)"
  growth: "97.1% (inactive)"
- compound: "Fc1c[c-]c(-c2ccccn2)c(F)c1.Fc1c[c-]c(-c2ccccn2)c(F)c1.[Cl][Pt+].[Cl][Pt+].c1ccc([PH+](C[PH+](c2ccccc2)c2ccccc2)c2ccccc2)cc1"
  growth: "15% (inactive)"
- compound: "CCOC(=O)C1=C(C)N2C(=NC3=C(CCCC/C3=C\\c3cc(OC)c(OC)c(OC)c3)C2c2cc(OC)c(OC)c(OC)c2)S1 (centres undefined)"
  growth: "67.7% (inactive)"
- compound: "Cc1ccccc1-c1cc(-c2ccc(Br)s2)[nH]c(=O)c1C#N"
  growth: "106% (inactive)"
- compound: "O=c1c2c(=NCCN3CCCC3)cc3c(=O)n(CCCN4CCOCC4)c(=O)c4c(-c5ccc(CN6CCCC6)cc5)cc(c(O)n1CCCN1CCOCC1)c2c4-3"
  growth: "-19.4% (active)"
- compound: "CCCCCCCC/C=C\\CCCCCCCCOc1cccc(CC(=O)NCC[N+]2(C)CCCC2)c1"
  growth: "53.5% (inactive)"
- compound: "COc1ccccc1CNCCCCCCCCCCCCN1C(=O)c2ccc3c4c(ccc(c24)C1=O)C(=O)N(CCCCCCCCCCCCNCc1ccccc1OC)C3=O"
  growth: "-28.6% (active)"
- compound: "O=C1CC(c2ccsc2)c2snc(-c3ccc(Cl)cc3)c2N1 (centres undefined)"
  growth: "27.7% (inactive)"
- compound: "Clc1ccc2c(c1)C[C@H]1C[C@@H](c3cccs3)N2O1"
  growth: "93.7% (inactive)"
